The reported numbers originate from patent US8962842B2.

Below, each of the compounds is paired with its reported AUC(0-inf) value.
# ASSAY: Mouse pharmacokinetics, intravenous or oral 10 mg/kg (Table 9)
# Format: in vivo
# EXPERIMENTAL_CONTEXT: iv, mice, plasma
The reply should contain only the number, in ng·h/mL.

Cc1c(-c2ccc(O)cc2)ccn2c(=O)c(C(=O)[O-])cc(C3CC3)c12.[K+] [Ex. 46 K salt] :: 474
Cc1c(-c2ccc(N)c(F)c2)ccn2c(=O)c(C(=O)[O-])cc(C3CC3)c12.[K+] [Ex. 2 K salt] :: 1340
Cc1c(-c2cc(F)c(N)cc2F)ccn2c(=O)c(C(=O)[O-])cc(C3CC3)c12.[K+] [Ex. 28 K salt] :: 1650

Dear colleague, I am looking for the recorded AUC(0-inf) of the following compound: Cc1c(-c2ccc3[nH]ncc3c2)ccn2c(=O)c(C(=O)[O-])cc(C3CC3)c12.[K+] [Ex. 23 K salt] 2040

---

# ASSAY_SYSTEM: bacterial gyrase (Escherichia coli, UniProt P0AES4+P0AES6)
# Sequence (P0AES4 whole entry, one chain of several): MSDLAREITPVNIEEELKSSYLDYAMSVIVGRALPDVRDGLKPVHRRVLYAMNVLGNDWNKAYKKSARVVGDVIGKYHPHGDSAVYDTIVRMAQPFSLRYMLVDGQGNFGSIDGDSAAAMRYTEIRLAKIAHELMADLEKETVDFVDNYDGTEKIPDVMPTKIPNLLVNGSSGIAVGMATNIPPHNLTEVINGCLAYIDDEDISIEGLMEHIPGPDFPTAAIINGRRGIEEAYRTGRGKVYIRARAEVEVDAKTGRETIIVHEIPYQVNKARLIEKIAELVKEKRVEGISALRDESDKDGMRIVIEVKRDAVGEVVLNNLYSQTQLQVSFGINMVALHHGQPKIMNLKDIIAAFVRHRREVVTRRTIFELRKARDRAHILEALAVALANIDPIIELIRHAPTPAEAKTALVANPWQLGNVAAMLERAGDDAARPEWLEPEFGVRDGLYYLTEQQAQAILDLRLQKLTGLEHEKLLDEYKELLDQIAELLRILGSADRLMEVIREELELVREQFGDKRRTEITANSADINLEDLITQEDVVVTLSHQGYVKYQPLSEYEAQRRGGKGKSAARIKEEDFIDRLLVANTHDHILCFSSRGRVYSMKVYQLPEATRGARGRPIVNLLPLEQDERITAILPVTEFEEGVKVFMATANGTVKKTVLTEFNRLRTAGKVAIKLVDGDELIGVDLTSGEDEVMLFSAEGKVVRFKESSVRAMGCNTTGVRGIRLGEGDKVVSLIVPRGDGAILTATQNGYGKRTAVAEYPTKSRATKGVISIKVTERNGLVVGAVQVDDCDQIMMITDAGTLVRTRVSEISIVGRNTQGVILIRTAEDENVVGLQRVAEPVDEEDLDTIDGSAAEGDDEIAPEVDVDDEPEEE
# ASSAY: Inhibition of topoisomerases activity in vitro, Topogen protocol TG1003 (Table 7)
Below, each of the molecules is paired with its reported IC50 value.

Below are worked cases with known answers.
Cc1c(-c2cc(F)c(N)cc2F)ccn2c(=O)c(C(=O)[O-])cc(C3CC3)c12.[K+] [Example 28 K salt] :: 680 nM
Cc1c(-c2ccc3[nH]ncc3c2)ccn2c(=O)c(C(=O)[O-])cc(C3CC3)c12.[K+] [Example 23 K salt] :: ≤ 1390 nM
Cc1c(-c2ccc(N)c(F)c2)ccn2c(=O)c(C(=O)[O-])cc(C3CC3)c12.[K+] [Example 2 K salt] :: ≤ 1420 nM

Okay, next one:
Query IC50 on bacterial gyrase (Escherichia coli, UniProt P0AES4+P0AES6) for Cc1c(-c2ccc(N)nc2)ccn2c(=O)c(C(=O)[O-])cc(C3CC3)c12.[K+] [Example 21 K salt] ≤ 1490 nM

---

# Test system: Enterococcus faecalis (5 strains)
# ASSAY: MIC range, broader panel of Quotient Bioresearch strains (Table 3)
# EXPERIMENTAL_CONTEXT: read-out: MIC Range Low, Enterococcus faecalis (5 strains)
So basically, if MIC comes in under 0.06 µg/mL it's criterion met, and if it's 0.06 µg/mL or more it's criterion not met.

Cc1c(C2=CCNCC2)ccn2c(=O)c(C(=O)O)cc(C3CC3)c12 :: criterion not met
Cc1c(-c2ccc(N)nc2)ccn2c(=O)c(C(=O)[O-])cc(C3CC3)c12.[K+] [Example 21 K salt] :: criterion met
Cc1c(-c2ccc(O)cc2)ccn2c(=O)c(C(=O)[O-])cc(C3CC3)c12.[K+] [Example 46 K salt] :: criterion met
Cc1c(-c2ccc3[nH]ncc3c2)ccn2c(=O)c(C(=O)[O-])cc(C3CC3)c12.[K+] [Example 23 K salt] :: criterion met
Cc1c(-c2ccc(N)c(F)c2)ccn2c(=O)c(C(=O)[O-])cc(C3CC3)c12.[K+] [Example 2 K salt] :: criterion met

Hello, is MIC of the following compound strictly smaller than 0.06 µg/mL? Cc1c(-c2ccc(C(N)=O)cc2)c(F)cn2c(=O)c(C(=O)[O-])cc(C3CC3)c12.[K+] [Example 6 K salt] criterion not met

Record: Cc1c(-c2ccncc2)ccn2c(=O)c(C(=O)[O-])cc(C3CC3)c12.[K+] [Example 16 K salt] criterion not met

Record: Cc1c(-c2ccc(N)c(F)c2)c(F)cn2c(=O)c(C(=O)[O-])cc(C3CC3)c12.[K+] [Example 1 K salt] criterion not met

Record: Cc1c(-c2cc(F)c(N)c(F)c2)ccn2c(=O)c(C(=O)[O-])cc(C3CC3)c12.[K+] [Example 39 K salt] criterion met

Record: Cc1c(-c2ccc(N)cc2)c(F)cn2c(=O)c(C(=O)[O-])cc(C3CC3)c12.[K+] [Example 5 K salt] criterion met

Record: Cc1c(-c2cc(F)c(N)cc2F)ccn2c(=O)c(C(=O)[O-])cc(C3CC3)c12.[K+] [Example 28 K salt] criterion met
